What refractive index was measured for each of the following?
Assay: refractive index (Na D-line) (dimensionless)
Conditions: 343.15 K; 100 kPa; Liquid; Standard Abbe refractometry
One number for each entry.

Provide refractive index value for the following compound: CCCC[N+](CCCC)(CCCC)CCCC.O=S(=O)([O-])CC(O)CN1CCOCC1 [tetrabutylammonium 2-hydroxy-3-morpholinopropanesulfonate] 1.47242

Take each entry in turn and give its refractive index.
1. C[N+](C)(C)CCO.O=S(=O)([O-])CCN(CCO)CCO
2. CCCC[N+](CCCC)(CCCC)CCCC.O=S(=O)([O-])CC(O)CNC1CCCCC1
3. CCCC[N+](CCCC)(CCCC)CCCC.O=S(=O)([O-])CCN(CCO)CCO
4. CCCC[P+](CCCC)(CCCC)CCCC.O=S(=O)([O-])CC(O)CN1CCOCC1 [tetrabutylphosphonium 2-hydroxy-3-morpholinopropanesulfonate]
5. CCCC[P+](CCCC)(CCCC)CCCC.O=S(=O)([O-])CC(O)CNC1CCCCC1

1.48921
1.47291
1.47646
1.47908
1.47902

====

Settings: 348.15 K; 100 kPa; Liquid; Concentric cylinders viscometry
measuredEndpoint: viscosity (mPa·s)
Numbers only, in mPa·s.

Some solved cases for reference:
Using the record for `CCCC[N+](CCCC)(CCCC)CCCC.O=S(=O)([O-])CC(O)CNC1CCCCC1` , state its measured viscosity. 898.5

Input CCCC[P+](CCCC)(CCCC)CCCC.O=S(=O)([O-])CC(O)CN1CCOCC1 [tetrabutylphosphonium 2-hydroxy-3-morpholinopropanesulfonate] , output reported viscosity. 195.8

Look up viscosity of `CCCC[P+](CCCC)(CCCC)CCCC.O=S(=O)([O-])CCN(CCO)CCO` and report it. 273.6

Specify reported viscosity for the molecule shown: `C[N+](C)(C)CCO.O=S(=O)([O-])CCN(CCO)CCO` 658.8

Quick one: give measured viscosity for C[N+](C)(C)CCO.O=S(=O)([O-])CC(O)CN1CCOCC1 (centres undefined) 1545.5

// for each molecule below, give its viscosity
1. CCCC[P+](CCCC)(CCCC)CCCC.O=S(=O)([O-])CC(O)CNC1CCCCC1
2. C[N+](C)(C)CCO.O=S(=O)([O-])CC(O)CNC(CO)(CO)CO (centres undefined)
3. CCCC[N+](CCCC)(CCCC)CCCC.O=S(=O)([O-])CCN(CCO)CCO
4. CCCC[N+](CCCC)(CCCC)CCCC.O=S(=O)([O-])CC(O)CN1CCOCC1 [tetrabutylammonium 2-hydroxy-3-morpholinopropanesulfonate]

231
9355.9
848.3
807.1

====

Assay: refractive index (Na D-line) (dimensionless)
Settings: 338.15 K; 100 kPa; Liquid; Standard Abbe refractometry
measuredEndpoint: refractive index
Give bare numbers.

Answer with the recorded refractive index for the molecule listed here: `CCCC[P+](CCCC)(CCCC)CCCC.O=S(=O)([O-])CC(O)CNC1CCCCC1` 1.48045

// for each molecule in input: emit refractive index
1. C[N+](C)(C)CCO.O=S(=O)([O-])CC(O)CN1CCOCC1 (centres undefined)
2. C[N+](C)(C)CCO.O=S(=O)([O-])CCN(CCO)CCO
3. CCCC[N+](CCCC)(CCCC)CCCC.O=S(=O)([O-])CCN(CCO)CCO
4. CCCC[N+](CCCC)(CCCC)CCCC.O=S(=O)([O-])CC(O)CNC1CCCCC1
5. C[N+](C)(C)CCO.O=S(=O)([O-])CC(O)CNC(CO)(CO)CO (centres undefined)
6. CCCC[P+](CCCC)(CCCC)CCCC.O=S(=O)([O-])CC(O)CN1CCOCC1 [tetrabutylphosphonium 2-hydroxy-3-morpholinopropanesulfonate]
7. CCCC[N+](CCCC)(CCCC)CCCC.O=S(=O)([O-])CC(O)CN1CCOCC1 [tetrabutylammonium 2-hydroxy-3-morpholinopropanesulfonate]

1. 1.48995
2. 1.49052
3. 1.47784
4. 1.47449
5. 1.50654
6. 1.48069
7. 1.47377

Retrieve refractive index measured for `CCCC[P+](CCCC)(CCCC)CCCC.O=S(=O)([O-])CCN(CCO)CCO` and print it. 1.48437
